assay: in vitro; details: human, liver microsomes
MEASURE: remaining at 0.5 h, 2 µM (%)
# unit: % | format: bare number

q: What value of measured remaining at 0.5 h, 2 µM is listed for CS(=O)(=O)N1CC2Cc3[nH]ncc3C(C1)N2S(=O)(=O)c1ccc(Cl)cc1 (stereo unspecified) ?
a: 55

###

tested on: Liver microsomes; settings: human, 0.5 h, 1 µM
Overview of recorded Stability for various compounds
# unit: % | format: bare number

COMPOUND | VALUE
O=S(=O)(c1ccc(Cl)cc1)N1C2COCC1c1cn[nH]c1C2 (stereo in doubt; 32) | 100
N#CC1CC2Cc3[nH]ncc3C(C1)N2S(=O)(=O)c1ccc(Cl)cc1 (stereo in doubt) | 70
N#CC1CC2Cc3[nH]ncc3C(C1)N2S(=O)(=O)c1ccc(Cl)cc1 (stereo in doubt; form 1) | 72

q: What value of measured Stability is listed for O=S(=O)(c1ccc(Cl)cc1)N1C2COCC1c1cn[nH]c1C2 (stereo in doubt) ?
a: 78

q: What value of measured Stability is listed for Cl.O=S(=O)(c1ccc(Cl)cc1)N1C2COCC1c1cn[nH]c1C2 (stereo unspecified) ?
a: 81
